Hi there, I'd appreciate the recorded RP (Rf from RP-2 TLC plate) for every entry that follows.
- EXPERIMENT NOTES: Reversed-phase TLC on RP-2 silanized plates (Rf)
- Format: physicochemical
- CONDITION CONTEXT: silica gel 60 RP-2 F254 silanized; water:methanol:acetonitrile 60:20:20, ammonium acetate pH 7.4
Answers are plain numbers.

>  <COMPOUND>
CCC1(c2ccccc2)C(=O)NCNC1=O [primidone]

>  <RP (Rf from RP-2 TLC plate)>
0.93

$$$$
>  <COMPOUND>
CN1C[C@H](C(=O)N[C@]2(C)O[C@@]3(O)[C@@H]4CCCN4C(=O)[C@H](Cc4ccccc4)N3C2=O)C[C@@H]2c3cccc4[nH]cc(c34)C[C@H]21 [dihydroergotamine]

>  <RP (Rf from RP-2 TLC plate)>
0.78

$$$$
>  <COMPOUND>
CCCCc1oc2ccccc2c1C(=O)c1cc(I)c(OCCN(CC)CC)c(I)c1 [amiodarone]

>  <RP (Rf from RP-2 TLC plate)>
0.33

$$$$
>  <COMPOUND>
CC(=O)Nc1ccc(O)cc1 [paracetamol]

>  <RP (Rf from RP-2 TLC plate)>
0.92

$$$$
>  <COMPOUND>
C[C@H]1c2cccc(O)c2C(=O)C2=C(O)[C@]3(O)C(=O)C(C(N)=O)=C(O)[C@@H](N(C)C)[C@@H]3[C@@H](O)[C@@H]21 [doxycycline]

>  <RP (Rf from RP-2 TLC plate)>
0.08

$$$$
>  <COMPOUND>
CCCN1C[C@H](CSC)C[C@@H]2c3cccc4[nH]cc(c34)C[C@H]21 [pergolide]

>  <RP (Rf from RP-2 TLC plate)>
0.55

$$$$

Please look at the items below and tell me RP (Rf from RP-2 TLC plate) for each one, in order.
1. CC(C)c1c(C(=O)Nc2ccccc2)c(-c2ccccc2)c(-c2ccc(F)cc2)n1CC[C@@H](O)C[C@@H](O)CC(=O)O [atorvastatin]
2. CC(=O)[C@H]1CC[C@H]2[C@@H]3CCC4=CC(=O)CC[C@]4(C)[C@H]3CC[C@]12C [progesterone]

# output
0.8
0.71

Provenance of the data: paper PMC10384010
